# Test system: NCI-H1975
# TEST_METHOD_NOTES: Antiproliferative activity against human NCI-H1975 cells assessed as inhibition of cell proliferation at 6 uM after 72 hrs by MTT assay relative to control
# Type: functional
# ASSAY_SETUP: NCI-H1975, 72 h
inhibition at 6 µM values for the compounds below.
Express it in %; write the number only.

Here are 2 compounds together with their reported answers.
CHEMICAL_SMILES: O=C(c1ccccc1Br)C(Cl)Cl
UNIT_ABBREV: %
inhibition at 6 µM: 14.3
--
CHEMICAL_SMILES: O=C(c1cccc(CCl)c1)C(Cl)Cl
UNIT_ABBREV: %
inhibition at 6 µM: 99.3

Now turn to the next compound.
-- ask Given the entry CCc1ccc(C(=O)C(Cl)Cl)cc1 , report its measured inhibition at 6 µM.
-- reply 97.6

====

# Test system: NCI-H1975
# TEST_METHOD_NOTES: Antiproliferative activity against human NCI-H1975 cells assessed as inhibition of cell proliferation at 6 uM after 72 hrs by MTT assay relative to control
# Type: functional
# ASSAY_SETUP: NCI-H1975, 72 h
READOUT_NAME: inhibition at 6 µM (%)
State the answer as a number, implicitly in %.

MOLECULE: CC(C)Oc1ccc(C(=O)C(Cl)Cl)cc1[N+](=O)[O-]
inhibition at 6 µM (%): 99.1
//
MOLECULE: Cc1cc(C(=O)C(Cl)Cl)ccc1Cl
inhibition at 6 µM (%): 97.8
//
MOLECULE: O=C(c1ccc(OCCCCCBr)c([N+](=O)[O-])c1)C(Cl)Cl
inhibition at 6 µM (%): 49.8
//
MOLECULE: O=C(c1ccccc1F)C(Cl)Cl
inhibition at 6 µM (%): 12.8
//
MOLECULE: COc1cccc2c1C(=O)c1c(O)c3c(c(O)c1C2=O)C[C@@](O)(C(=O)CO)C[C@@H]3O[C@H]1C[C@H](N)[C@H](O)[C@H](C)O1 [DOXORUBICIN]
inhibition at 6 µM (%): 90.6

-- ask So what's the measured inhibition at 6 µM for this one? CC(C)c1ccc(C(=O)C(Cl)Cl)cc1[N+](=O)[O-]
-- reply 95

-- ask Repeat with Cc1ccc(C(=O)C(Cl)Cl)cc1[N+](=O)[O-]
-- reply 89.5

-- ask Also need O=C(c1cccc(I)c1)C(Cl)Cl , thanks.
-- reply 97.5

-- ask Then this molecule: CCc1ccc(C(=O)C(Cl)Cl)cc1[N+](=O)[O-]
-- reply 93.2

-- ask // same read-out, input: CCOc1ccc(C(=O)C(Cl)Cl)cc1[N+](=O)[O-]
-- reply 94.1

-- ask Do the same for O=C(c1ccccc1[N+](=O)[O-])C(Cl)Cl please
-- reply 61.5

-- ask For O=C(c1ccc(Cl)c(Cl)c1)C(Cl)Cl then?
-- reply 95.8

-- ask # repeat for CC1CCOc2ccc(C(=O)C(Cl)Cl)cc21 (stereo unspecified)
-- reply 98

-- ask Would you kindly repeat that for CC(C)Oc1ccc(C(=O)CCl)cc1[N+](=O)[O-] ?
-- reply 27.7

-- ask Same lookup for O=C(c1ccc(Cl)cc1Cl)C(Cl)Cl , please.
-- reply 96.9

-- ask Now consider O=C(c1ccc(Cl)c(C(F)(F)F)c1)C(Cl)Cl and answer again.
-- reply 97.6

These measurements were taken from ChEMBL document CHEMBL4265965.
